Below, each of the compounds is paired with its reported MIC value.
- Tested on: Streptococcus pyogenes
- method-summary: In vitro antibacterial activity against Streptococcus pyogenes 930
- Format: functional

compound: O=C(O)c1cn(-c2ccc(F)cc2)c2c(F)c(N3CCNCC3)c(F)cc2c1=O
MIC [µg/mL]: 1.56
//
compound: NC1CCN(c2c(F)cc3c(=O)c(C(=O)O)cn(-c4ccc(F)cc4F)c3c2F)C1 (stereo unspecified)
MIC [µg/mL]: 0.78
//
compound: NC1CCN(c2cc3c(cc2F)c(=O)c(C(=O)O)cn3-c2ccc(F)cc2)C1 (stereo unspecified)
MIC [µg/mL]: 0.1
//
compound: CN1CCN(c2c(F)cc3c(=O)c(C(=O)O)cn(-c4ccc(F)cc4)c3c2F)CC1
MIC [µg/mL]: 3.1
//
compound: O=C(O)c1cn(-c2ccc(F)cc2F)c2c(F)c(N3CCNCC3)c(F)cc2c1=O
MIC [µg/mL]: 1.56
//
compound: CN1CCN(c2c(F)cc3c(=O)c(C(=O)O)cn(-c4ccc(F)cc4F)c3c2F)CC1
MIC [µg/mL]: 3.1
//
compound: Cl.O=C(O)c1cn(-c2ccc(F)cc2)c2cc(N3CCNCC3)c(F)cc2c1=O [SARAFLOXACIN HYDROCHLORIDE]
MIC [µg/mL]: 0.78
//
compound: NC1CCN(c2c(F)cc3c(=O)c(C(=O)O)cn(-c4ccc(F)cc4)c3c2F)C1 (stereo unspecified)
MIC [µg/mL]: 1.56
//
compound: CCn1cc(C(=O)O)c(=O)c2cc(F)c(N3CCNCC3)cc21
MIC [µg/mL]: 3.1
//
compound: CN1CCN(c2cc3c(cc2F)c(=O)c(C(=O)O)cn3-c2ccc(F)cc2)CC1
MIC [µg/mL]: 1.56
//
compound: O=C(O)c1cn(C2CC2)c2cc(N3CCNCC3)c(F)cc2c1=O
MIC [µg/mL]: 0.39

----------
- Test system: Staphylococcus aureus
- method-summary: In vitro antibacterial activity against Staphylococcus aureus CMX 686B
- Assay type: functional
Below, each of the molecules is paired with its reported MIC value.
quantity-kind: MIC (mg/L)

molecule: O=C(O)c1cn(C2CC2)c2cc(N3CCNCC3)c(F)cc2c1=O [CIPROFLOXACIN]
target: Staphylococcus aureus
reading-unit: mg/L
number: 0.39

molecule: O=C(O)c1cn(-c2ccc(F)cc2F)c2c(F)c(N3CCNCC3)c(F)cc2c1=O
target: Staphylococcus aureus
reading-unit: mg/L
number: 0.39

molecule: CN1CCN(c2cc3c(cc2F)c(=O)c(C(=O)O)cn3-c2ccc(F)cc2)CC1 [DIFLOXACIN]
target: Staphylococcus aureus
reading-unit: mg/L
number: 0.2

molecule: CCn1cc(C(=O)O)c(=O)c2cc(F)c(N3CCNCC3)cc21 [NORFLOXACIN]
target: Staphylococcus aureus
reading-unit: mg/L
number: 0.78

molecule: NC1CCN(c2c(F)cc3c(=O)c(C(=O)O)cn(-c4ccc(F)cc4)c3c2F)C1 (stereo unspecified)
target: Staphylococcus aureus
reading-unit: mg/L
number: 0.2

molecule: NC1CCN(c2cc3c(cc2F)c(=O)c(C(=O)O)cn3-c2ccc(F)cc2)C1 (stereo unspecified)
target: Staphylococcus aureus
reading-unit: mg/L
number: 0.05

molecule: Cl.O=C(O)c1cn(-c2ccc(F)cc2)c2cc(N3CCNCC3)c(F)cc2c1=O [SARAFLOXACIN HYDROCHLORIDE]
target: Staphylococcus aureus
reading-unit: mg/L
number: 0.2

molecule: NC1CCN(c2c(F)cc3c(=O)c(C(=O)O)cn(-c4ccc(F)cc4F)c3c2F)C1 (stereo unspecified)
target: Staphylococcus aureus
reading-unit: mg/L
number: 0.2

molecule: O=C(O)c1cn(-c2ccc(F)cc2)c2c(F)c(N3CCNCC3)c(F)cc2c1=O
target: Staphylococcus aureus
reading-unit: mg/L
number: 0.39

molecule: CN1CCN(c2c(F)cc3c(=O)c(C(=O)O)cn(-c4ccc(F)cc4F)c3c2F)CC1
target: Staphylococcus aureus
reading-unit: mg/L
number: 0.39

molecule: CN1CCN(c2c(F)cc3c(=O)c(C(=O)O)cn(-c4ccc(F)cc4)c3c2F)CC1
target: Staphylococcus aureus
reading-unit: mg/L
number: 0.39
